- System: MCF7
- METHOD_NOTES: Antiproliferative activity against human MCF7 cells assessed as reduction in cell viability incubated for 48 hrs by MTT assay
- Type: functional, cell-based
- SETUP_CONDITIONS: MCF7, 48 h, read-out: IC50
pIC50: −log10 of the molar value.
Consider the following compounds; for each one, report its pIC50.

Given the compound C=C1[C@H](OCC(C)C)[C@@H](OC(C)=O)[C@@H](OC(C)=O)C(C)(C)/C=C/[C@H](C)[C@H](OC(=O)c2ccccc2)[C@@]2(O)C[C@@](C)(OC(C)=O)[C@H](OC(C)=O)[C@@H]2[C@H]1OCC(C)C and test system MCF7, the measured pIC50 is < 4.00

The compound COc1cc2c(cc1OC)CN(CCc1ccc(NC(=O)c3cc(OC)c(OC)cc3NC(=O)c3cnc4ccccc4c3)cc1)CC2 , when measured on MCF7, yielded pIC50 of 5.09

pIC50 of C=C1[C@H](OC(C)=O)[C@@H](OC(=O)C(C)(C)C)[C@@H](OC(C)=O)C(C)(C)/C=C/[C@H](C)[C@H](OC(=O)c2ccccc2)[C@@]2(O)C[C@@](C)(OC(C)=O)[C@H](OC(C)=O)[C@@H]2[C@H]1OCC(C)C , assay on MCF7, is < 4.00

Form field, pIC50 with MCF7, item C=C1[C@H](O)[C@@H](O)[C@@H](O)C(C)(C)/C=C/[C@H](C)[C@H](OC(=O)c2ccccc2)[C@@]2(O)C[C@@](C)(O)[C@H](OC(C)=O)[C@@H]2[C@H]1OCC(C)C : < 4.00

Record C=C1[C@H](OC(C)=O)[C@@H](OC(=O)c2cccc(C)c2)[C@@H](OC(C)=O)C(C)(C)/C=C/[C@H](C)[C@H]2O[C@]3(C)C[C@@]2(OC(=O)c2ccccc2)[C@H]([C@H]3OC(C)=O)[C@H]1OCC(C)C has MCF7 pIC50 equal to < 4.00
